Biological target: T1, human TNFR1 (recombinant, R&D Systems cat no. 636-R1/CF, biotinylated) (human, UniProt P19438 30-211, limits assumed, biotinylated with EZ-Link NHS-LC-LC-biotin)
T1 construct: it is not tied to the BIAcore reagent; also called p55; hTNFR1
T1 sequence (looked up): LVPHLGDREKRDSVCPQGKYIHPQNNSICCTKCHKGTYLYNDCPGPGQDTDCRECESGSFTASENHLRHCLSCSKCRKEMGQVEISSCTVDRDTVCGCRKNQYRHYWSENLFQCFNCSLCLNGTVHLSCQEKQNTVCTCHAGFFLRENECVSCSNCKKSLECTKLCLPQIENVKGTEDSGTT
Assay: BIAcore T100, biotinylated human TNFR1 on chip
Experimental: Furthermore, the affinity and potency of the purified fusion molecules were determined using a BIAcore T100 and the MRC5 cell assay, respectively. The BIAcore T100 is a highly sensitive BIAcore version ideally suited for determination of high affinity binders (Papalia et al., Anal Biochem. 359, p 112 (2006)). Biotinylated, human TNFR1 was coated on the chip and each of the twelve AlbudAb fusions were passed over this surface at four different concentrations (2, 10, 50 and 250 nM). […]
Measured koff, listed per entry for reference.
endpointLabel: koff (s⁻¹)

>>> valuemeasured("DMS0118 (bispecific antibody, anti-TNFR1 dAb / AlbudAb in-line fusion) EVQLLESGGGLVQPGGSLRLSCAASGFTFVKYSMGWVRQAPGKGLEWVSQISNTADRTYYAHSVKGRFTISRDNSKNTLYLQMNSLRAEDTAVYYCAIYTGRWVPFEYWGQGTLVTVSSASTSGPSDIQMTQSPSSLSASVGDRVTITCRASQWIGSQLSWYQQKPGKAPKLLIMWRSSLQSGVPSRFSGSGSGTDFTLTISSLQPEDFATYYCAQGLMKPMTFGQGTKVEIKR")
"4.9e-05"
>>> valuemeasured("DOM1h-574-72 (other, VH dAb; expressed in E. coli, purified on Protein A) VH: EVQLLESGGGLVQPGGSLRLSCAASGFTFVKYSMGWVRQAPGKGLEWVSQISNTADRTYYAHSVKGRFTISRDNSKNTLYLQMNSLRAEDTAVYYCAIYTGRWVPFEYWGQGTLVTVSS")
0.00011
>>> valuemeasured("DMS0115 (bispecific antibody, anti-TNFR1 dAb / AlbudAb in-line fusion) EVQLLESGGGLVQPGGSLRLSCAASGFTFVKYSMGWVRQAPGKGLEWVSQISNTADRTYYAHSVKGRFTISRDNSKNTLYLQMNSLRAEDTAVYYCAIYTGRWVPFEYWGQGTLVTVSSASTSGPSDIQMTQSPSSLSASVGDRVTITCRASRPIGTTLSWYQQKPGKAPKLLILWNSRLQSGVPSRFSGSGSGTDFTLTISSLQPEDFATYYCAQAGTHPTTFGQGTKVEIKR")
"5.8e-05"
